Each entry below carries its recorded IC50.
# System tested: Protein farnesyltransferase (Homo sapiens, UniProt P49354+P49356)
# Assay summary: Inhibitory activity against recombinant human farnesyltransferase
# Format: protein-complex assay
Quantity: IC50

[[record]]
compound = "CC(C)C(CP(=O)(O)C(Cc1ccccc1)NC(=O)OCc1ccccc1)C(=O)N[C@H](Cc1c[nH]c2ccccc12)C(=O)N[C@H](C)C(=O)O (stereo not given in full)"
system_tested = "Protein farnesyltransferase (Homo sapiens, UniProt P49354+P49356)"
quantity = "IC50"
recorded_value = "1 µM"

[[record]]
compound = "Clc1ccc2c(c1)C(OCc1ccsc1Cl)C(Cn1ccnc1)S2 (stereo not given)"
system_tested = "Protein farnesyltransferase (Homo sapiens, UniProt P49354+P49356)"
quantity = "IC50"
recorded_value = "2.5 µM"

[[record]]
compound = "Clc1cccc2c1S[C@H](Cn1ccnc1)[C@@H]2OCc1ccsc1Cl"
system_tested = "Protein farnesyltransferase (Homo sapiens, UniProt P49354+P49356)"
quantity = "IC50"
recorded_value = "6 µM"

[[record]]
compound = "Clc1ccc2c(c1)S[C@H](Cn1ccnc1)[C@@H]2OCc1c(Cl)ccc2c1OCO2"
system_tested = "Protein farnesyltransferase (Homo sapiens, UniProt P49354+P49356)"
quantity = "IC50"
recorded_value = "3.2 µM"

[[record]]
compound = "Clc1cc(Cl)c2c(c1)[C@@H](OCc1ccsc1Cl)[C@@H](Cn1ccnc1)S2"
system_tested = "Protein farnesyltransferase (Homo sapiens, UniProt P49354+P49356)"
quantity = "IC50"
recorded_value = "1.6 µM"

[[record]]
compound = "Clc1cccc2c1[C@@H](OCc1ccsc1Cl)[C@@H](Cn1ccnc1)S2"
system_tested = "Protein farnesyltransferase (Homo sapiens, UniProt P49354+P49356)"
quantity = "IC50"
recorded_value = "1.3 µM"

[[record]]
compound = "O=C(Cc1ccncc1)N1CCC(=C2c3ccccc3CCc3ccccc32)CC1"
system_tested = "Protein farnesyltransferase (Homo sapiens, UniProt P49354+P49356)"
quantity = "IC50"
recorded_value = "1.14 µM"

[[record]]
compound = "Clc1ccc2c(c1)S[C@H](Cn1ccnc1)[C@@H]2OCc1cccnc1Cl"
system_tested = "Protein farnesyltransferase (Homo sapiens, UniProt P49354+P49356)"
quantity = "IC50"
recorded_value = "1.3 µM"

[[record]]
compound = "O=C(Cc1ccccn1)N1CCC(=C2c3ccc(Cl)cc3CCc3cccnc32)CC1"
system_tested = "Protein farnesyltransferase (Homo sapiens, UniProt P49354+P49356)"
quantity = "IC50"
recorded_value = "2 µM"

[[record]]
compound = "Clc1ccc2c(c1)S[C@H](Cn1ccnc1)[C@@H]2OCc1cnc2cc3c(cc2c1Cl)OCO3"
system_tested = "Protein farnesyltransferase (Homo sapiens, UniProt P49354+P49356)"
quantity = "IC50"
recorded_value = "2.5 µM"

[[record]]
compound = "Clc1ccc(COC2c3c(Cl)cc(Cl)cc3SC2Cn2ccnc2)c(Cl)c1 (stereo not given)"
system_tested = "Protein farnesyltransferase (Homo sapiens, UniProt P49354+P49356)"
quantity = "IC50"
recorded_value = "12.3 µM"

[[record]]
compound = "Clc1sccc1CO[C@@H]1c2c(ccc3c2CCCC3)S[C@@H]1Cn1ccnc1"
system_tested = "Protein farnesyltransferase (Homo sapiens, UniProt P49354+P49356)"
quantity = "IC50"
recorded_value = "0.2 µM"

[[record]]
compound = "O=C(Nc1ccccn1)N1CCN(C2c3ccc(Cl)cc3CCc3cccnc32)CC1 (stereo not given)"
system_tested = "Protein farnesyltransferase (Homo sapiens, UniProt P49354+P49356)"
quantity = "IC50"
recorded_value = "0.95 µM"

[[record]]
compound = "Fc1ccc2c(c1)[C@@H](OCc1ccsc1Cl)[C@@H](Cn1ccnc1)S2"
system_tested = "Protein farnesyltransferase (Homo sapiens, UniProt P49354+P49356)"
quantity = "IC50"
recorded_value = "1.8 µM"

[[record]]
compound = "Fc1cccc(Cl)c1CO[C@@H]1c2ccc(Cl)cc2S[C@@H]1Cn1ccnc1"
system_tested = "Protein farnesyltransferase (Homo sapiens, UniProt P49354+P49356)"
quantity = "IC50"
recorded_value = "4.4 µM"

[[record]]
compound = "Clc1sccc1CO[C@@H]1c2cc3c(cc2S[C@@H]1Cn1ccnc1)CCCC3"
system_tested = "Protein farnesyltransferase (Homo sapiens, UniProt P49354+P49356)"
quantity = "IC50"
recorded_value = "10.8 µM"

[[record]]
compound = "O=C(Cc1cccnc1)N1CCN(C(c2ccc(Cl)cc2)c2ccccn2)CC1 (stereo not given)"
system_tested = "Protein farnesyltransferase (Homo sapiens, UniProt P49354+P49356)"
quantity = "IC50"
recorded_value = "38.3 µM"

[[record]]
compound = "CC(C)(C)CC(=O)N1CCC(=C2c3ccc(Cl)cc3CCc3cccnc32)CC1"
system_tested = "Protein farnesyltransferase (Homo sapiens, UniProt P49354+P49356)"
quantity = "IC50"
recorded_value = "9.8 µM"

[[record]]
compound = "O=C(Cc1ccncc1)N1CCC(=C2c3ccccc3CSc3ccccc32)CC1"
system_tested = "Protein farnesyltransferase (Homo sapiens, UniProt P49354+P49356)"
quantity = "IC50"
recorded_value = "2.3 µM"

[[record]]
compound = "Fc1ccc2c(c1)S[C@H](Cn1ccnc1)[C@@H]2OCc1ccsc1"
system_tested = "Protein farnesyltransferase (Homo sapiens, UniProt P49354+P49356)"
quantity = "IC50"
recorded_value = "13.6 µM"

[[record]]
compound = "Fc1ccc2c(c1)[C@@H](OCc1ccc(Cl)cc1Cl)[C@@H](Cn1ccnc1)S2"
system_tested = "Protein farnesyltransferase (Homo sapiens, UniProt P49354+P49356)"
quantity = "IC50"
recorded_value = "0.7 µM"

[[record]]
compound = "[O-][n+]1ccc(CN2CCC(=C3c4ccccc4CCc4cccnc43)CC2)cc1"
system_tested = "Protein farnesyltransferase (Homo sapiens, UniProt P49354+P49356)"
quantity = "IC50"
recorded_value = "1830 µM"

[[record]]
compound = "Clc1ccc(COC2c3ccc(Cl)cc3SC2Cn2ccnc2)c(Cl)c1 (stereo not given)"
system_tested = "Protein farnesyltransferase (Homo sapiens, UniProt P49354+P49356)"
quantity = "IC50"
recorded_value = "5.4 µM"

[[record]]
compound = "O=C(Nc1ccncc1)C1CCN(C2c3ccc(Cl)cc3CCc3cccnc32)CC1 (stereo not given)"
system_tested = "Protein farnesyltransferase (Homo sapiens, UniProt P49354+P49356)"
quantity = "IC50"
recorded_value = "9.2 µM"

[[record]]
compound = "Clc1ccc2c(c1)S[C@H](Cn1ccnc1)[C@@H]2OCc1ccc(Cl)s1"
system_tested = "Protein farnesyltransferase (Homo sapiens, UniProt P49354+P49356)"
quantity = "IC50"
recorded_value = "2 µM"

[[record]]
compound = "Fc1ccc2c(c1)[C@@H](OCc1c(Cl)cccc1Cl)[C@@H](Cn1ccnc1)S2"
system_tested = "Protein farnesyltransferase (Homo sapiens, UniProt P49354+P49356)"
quantity = "IC50"
recorded_value = "2.7 µM"

[[record]]
compound = "C=C1CC2C3C=C(Cl)C4=CC(=O)C(Br)CC4(C)C3CCC2(C)[C@@]1(O)C(C)=O (stereo not given in full)"
system_tested = "Protein farnesyltransferase (Homo sapiens, UniProt P49354+P49356)"
quantity = "IC50"
recorded_value = "1.8 µM"

[[record]]
compound = "Clc1ccc2c(c1)S[C@H](Cn1ccnc1)[C@@H]2OCc1cscn1"
system_tested = "Protein farnesyltransferase (Homo sapiens, UniProt P49354+P49356)"
quantity = "IC50"
recorded_value = "10.7 µM"

[[record]]
compound = "NC1CCC(C(=O)N2CCC(=C3c4ccc(Cl)cc4CCc4cccnc43)CC2)CC1 (stereo not given)"
system_tested = "Protein farnesyltransferase (Homo sapiens, UniProt P49354+P49356)"
quantity = "IC50"
recorded_value = "5 µM"

[[record]]
compound = "[O-][S+]1c2cc(Cl)ccc2[C@@H](OCc2ccsc2Cl)[C@H]1Cn1ccnc1 (stereo not given in full)"
system_tested = "Protein farnesyltransferase (Homo sapiens, UniProt P49354+P49356)"
quantity = "IC50"
recorded_value = "20.8 µM"

[[record]]
compound = "Fc1ccc2c(c1)[C@@H](OCc1c(F)cccc1Cl)[C@@H](Cn1ccnc1)S2"
system_tested = "Protein farnesyltransferase (Homo sapiens, UniProt P49354+P49356)"
quantity = "IC50"
recorded_value = "2.3 µM"

[[record]]
compound = "Clc1ccc2c(c1)S[C@H](Cn1ccnc1)[C@@H]2OCc1ccsc1Cl"
system_tested = "Protein farnesyltransferase (Homo sapiens, UniProt P49354+P49356)"
quantity = "IC50"
recorded_value = "2.3 µM"

[[record]]
compound = "Clc1ccc(COC2c3c(Cl)cc(Cl)cc3SC2Cn2ccnc2)cc1 (stereo not given)"
system_tested = "Protein farnesyltransferase (Homo sapiens, UniProt P49354+P49356)"
quantity = "IC50"
recorded_value = "1.4 µM"

[[record]]
compound = "FC(F)(F)c1ccc2c(c1)S[C@H](Cn1ccnc1)[C@@H]2OCc1ccsc1Cl"
system_tested = "Protein farnesyltransferase (Homo sapiens, UniProt P49354+P49356)"
quantity = "IC50"
recorded_value = "10.7 µM"

[[record]]
compound = "O=S1(=O)c2cc(Cl)ccc2C(OCc2ccc(Cl)cc2Cl)C1Cn1ccnc1 (stereo not given)"
system_tested = "Protein farnesyltransferase (Homo sapiens, UniProt P49354+P49356)"
quantity = "IC50"
recorded_value = "45.9 µM"

[[record]]
compound = "Clc1ccc2c(c1)S[C@H](Cn1ccnc1)[C@@H]2OCc1ccc(Cl)c(Cl)c1"
system_tested = "Protein farnesyltransferase (Homo sapiens, UniProt P49354+P49356)"
quantity = "IC50"
recorded_value = "1.2 µM"

[[record]]
compound = "Clc1ccc2c(c1)S[C@H](Cn1ccnc1)[C@@H]2OCc1c(Cl)sc2ccccc12"
system_tested = "Protein farnesyltransferase (Homo sapiens, UniProt P49354+P49356)"
quantity = "IC50"
recorded_value = "2 µM"

[[record]]
compound = "O[C@H]1c2cc3c(cc2S[C@H]1Cn1ccnc1)CCCC3"
system_tested = "Protein farnesyltransferase (Homo sapiens, UniProt P49354+P49356)"
quantity = "IC50"
recorded_value = "> 70 µM"

[[record]]
compound = "O=C(Nc1cccnc1)N1CCN(C2c3ccc(Cl)cc3CCc3cccnc32)CC1 (stereo not given)"
system_tested = "Protein farnesyltransferase (Homo sapiens, UniProt P49354+P49356)"
quantity = "IC50"
recorded_value = "1.3 µM"

[[record]]
compound = "Clc1sccc1CO[C@@H]1c2ccccc2S[C@@H]1Cn1ccnc1"
system_tested = "Protein farnesyltransferase (Homo sapiens, UniProt P49354+P49356)"
quantity = "IC50"
recorded_value = "1.1 µM"

